System: Rat C6 cells expressing TK mutant SR11
assay.explanation: Rat C6 kill curves with GCV and ACV
Assay type: cell-based
assay.setup: Table VIII
Listed here: items and their measured IC50.
observation.type: IC50

>>> result("Nc1nc(O)c2ncn(COC(CO)CO)c2n1 [ganciclovir]")
"0.15 µM"
>>> result("Nc1nc2c(ncn2COCCO)c(=O)[nH]1 [acyclovir]")
"6 µM"

====

System: ts13 BHK tk- cells transfected with pCMV:132 (HSV-1 TK mutant 132)
assay.explanation: Cell killing by GCV and ACV, Alamar Blue viability (ED50)
Format: cell-based, baby hamster
assay.setup: Mesocricetus auratus, 96 h; effective dose for 50% cell killing, after 4 days on nucleoside analog, pooled G418 resistant clones
observation.type: IC50

>>> result("Nc1nc(O)c2ncn(COC(CO)CO)c2n1 [ganciclovir]")
"18 µM"
>>> result("Nc1nc2c(ncn2COCCO)c(=O)[nH]1 [acyclovir]")
"25 µM"

====

System: ts13 BHK tk- cells transfected with pCMV:30 (HSV-1 TK mutant 30)
assay.explanation: Cell killing by GCV and ACV, Alamar Blue viability (ED50)
Format: cell-based, baby hamster
assay.setup: Mesocricetus auratus, 96 h; effective dose for 50% cell killing, after 4 days on nucleoside analog, pooled G418 resistant clones
Listed here: items and their measured IC50.
observation.type: IC50

>>> result("Nc1nc(O)c2ncn(COC(CO)CO)c2n1")
"4.4 µM"
>>> result("Nc1nc2c(ncn2COCCO)c(=O)[nH]1")
"18 µM"
